So I've got a bunch of sequences here, and I need their pKd values.
target: HLA-B*35:01; experiment: IEDB peptide-MHC binding, purified MHC/competitive/radioactivity; filed as Kd, often an IC50 or EC50 that approximates it; bounds were set here for any values at or beyond the usual limits of such assays; details: source organism: SARS coronavirus Tor2
Numbers only, as −log10 of the molar value.

RPDTRYVLM
5.70
LPPKSSIDAF
5.95

Fill in: pKd of GPLVRKIFV is ___ 5.22

----------
target: HLA-B*18:01; assay: IEDB peptide-MHC binding, purified MHC/competitive/fluorescence; filed as Kd, often an IC50 or EC50 that approximates it; bounds were set here for any values at or beyond the usual limits of such assays; conditions: source organism: Orthohantavirus tulaense
pKd: −log10 of the molar value.
measured endpoint: pKd

Fill in: pKd of FMFNELLAL is ___ ≤ 4.70
